Where these numbers come from: ChEMBL document CHEMBL1149673

Kindly supply the reported Ratio IC50 values for the records listed here.
Species on record: Homo sapiens
run description: Selectivity for Cdk5/p25 over Cdk2/cyclin E
API doc: respond with a numeric literal and nothing else, no unit.

Prompt: Request the reported Ratio IC50 associated with CC(=O)Nc1cc(-c2ccccc2)c(-c2nnc3n2Nc2nc4ccccc4nc2S3)s1
Completion: 1.2

Prompt: Given CC(=O)Nc1cc(-c2ccccc2)c(-c2nnc(S)n2N)s1 , state its recorded Ratio IC50.
Completion: 1

Prompt: Please look up its Ratio IC50: O=C(CCl)Nc1cc(-c2ccccc2)c(-c2nnc3sc(-c4ccccc4)nn23)s1
Completion: 3.2

Prompt: Look up Ratio IC50: Cc1cc(NC(=O)CCl)sc1-c1nnc2sc(-c3ccccc3)nn12
Completion: 3.2

Prompt: Given the compound CC(=O)Nc1cc(C)c(-c2nnc3sc(-c4cccc([N+](=O)[O-])c4)nn23)s1 , what is its reported Ratio IC50?
Completion: 1

Prompt: Which Ratio IC50 value belongs to Cc1cc(NC(=O)CCl)sc1-c1nnc2n1NC(c1ccccc1)=C(c1ccccc1)S2 ?
Completion: 2

Prompt: What value of Ratio IC50 has been recorded for this entry: CC(=O)Nc1cc(C)c(-c2nnc3n2NC(c2ccccc2)=C(c2ccccc2)S3)s1
Completion: 2

Prompt: Look up Ratio IC50: Nn1c(S)nnc1-c1sc(NC(=O)CCl)cc1-c1ccccc1
Completion: 3

Prompt: What measured Ratio IC50 goes with CC(=O)Nc1cc(C)c(-c2nnc(S)n2N)s1 ?
Completion: 1

Prompt: I have this compound here, O=C(CCl)Nc1cc(-c2ccccc2)c(-c2nnc3n2Nc2nc4ccccc4nc2S3)s1 , and I need its recorded Ratio IC50.
Completion: 3.2
